The measured values listed here are drawn from ChEMBL document CHEMBL1131986.

Biological target: Dipeptidase 1 (Sus scrofa, UniProt P22412)
Sequence (P22412 whole entry): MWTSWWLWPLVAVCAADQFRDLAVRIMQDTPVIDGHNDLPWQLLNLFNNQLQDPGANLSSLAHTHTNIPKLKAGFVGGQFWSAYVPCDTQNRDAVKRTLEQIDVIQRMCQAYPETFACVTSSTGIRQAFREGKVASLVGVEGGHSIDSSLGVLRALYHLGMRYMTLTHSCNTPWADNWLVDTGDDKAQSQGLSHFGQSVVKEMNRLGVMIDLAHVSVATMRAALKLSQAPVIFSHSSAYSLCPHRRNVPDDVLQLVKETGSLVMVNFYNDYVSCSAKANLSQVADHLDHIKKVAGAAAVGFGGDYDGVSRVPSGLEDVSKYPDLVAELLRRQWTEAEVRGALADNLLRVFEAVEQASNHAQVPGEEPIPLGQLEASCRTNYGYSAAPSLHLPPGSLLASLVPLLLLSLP
Experiment: In vitro apparent inhibition constant of porcine renal Dehydropeptidase-1.
Details: read-out: Ki app
Entries annotated with measured Ki
Write down the numeric answer in µM and omit the unit.

In [3]: df
Out[3]:
                                        mol  numeric_value
0  CCCCc1nn(-c2ccccc2)c(C(=O)O)c1Cc1ccc(-c2ccccc2-c2nn[nH]n2)cc1            590
1  CCCCc1nn(-c2ccccc2Cl)c(C(=O)O)c1Cc1ccc(-c2ccccc2-c2nn[nH]n2)cc1            350

IN: Return reported Ki; argument: `CCCCc1nn(-c2cccc(Cl)c2Cl)c(C(=O)O)c1Cc1ccc(-c2ccccc2-c2nnn[nH]2)cc1`
OUT: 310

----------
Target: Metallo-beta-lactamase type 2 (Bacteroides fragilis)
Sequence (P25910 whole entry): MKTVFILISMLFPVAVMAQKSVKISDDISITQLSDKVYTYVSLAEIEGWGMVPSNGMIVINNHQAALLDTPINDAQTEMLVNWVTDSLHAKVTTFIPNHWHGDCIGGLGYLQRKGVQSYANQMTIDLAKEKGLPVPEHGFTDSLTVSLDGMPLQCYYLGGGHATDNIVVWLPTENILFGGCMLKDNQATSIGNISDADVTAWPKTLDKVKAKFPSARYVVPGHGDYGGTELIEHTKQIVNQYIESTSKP
Assay: Inhibition of metallo-beta-lactamase (MBL) from Bacteroides fragilis.
Entries annotated with measured IC50
Write down the numeric answer in µM and omit the unit.

Worked cases, IC50 given:
In [3]: df
Out[3]:
                                        mol  endpoint_label  numeric_value
0  CCCCc1nn(-c2cccc(Cl)c2Cl)c(C(=O)O)c1Cc1ccc(-c2ccccc2-c2nnn[nH]2)cc1            IC50             37
1  CCCCc1nn(-c2cc(Cl)ccc2Cl)c(C(=O)O)c1Cc1ccc(-c2ccccc2-c2nnn[nH]2)cc1            IC50             50
2  CCCCc1nn(-c2ccccc2C(F)(F)F)c(C(=O)OCC)c1Cc1ccc(-c2ccccc2-c2nnn[nH]2)cc1            IC50             22
3  CCCCc1nn(-c2ccc(Cl)cc2)c(C(=O)OCC)c1Cc1ccc(-c2ccccc2-c2nn[nH]n2)cc1            IC50            290
4  CCCCc1nn(-c2c(Cl)cc(Cl)cc2Cl)c(C(=O)OCC)c1Cc1ccc(-c2ccccc2-c2nn[nH]n2)cc1            IC50             80
5  CCCCc1nn(-c2ccccc2[N+](=O)[O-])c(C(=O)OCC)c1Cc1ccc(-c2ccccc2-c2nnn[nH]2)cc1            IC50             18
6  CCCCc1nn(-c2ccccc2-c2ccccc2)c(C(=O)O)c1Cc1ccc(-c2ccccc2-c2nnn[nH]2)cc1            IC50            180

IN: Return reported IC50; argument: `CCCCc1nn(-c2ccccc2C)c(C(=O)OCC)c1Cc1ccc(-c2ccccc2-c2nn[nH]n2)cc1`
OUT: 70
